test system: L. major amastigotes; assay: L. major amastigote assay; type: cell-based, Leishmania major; settings: Leishmania major
Recorded pIC50 for the following molecules
In simple prose, pIC50 is minus the logarithm base ten of a concentration in moles per litre.

* Cc1ccc(C(C)C)c(OC(=O)/C=C/c2ccccc2)c1 | 4.31

Requested read-out pIC50, target or system L. major amastigotes, entry CC1(C)C2CCC1(C)C(OC(=O)C=Cc1ccccc1)C2 (stereo not drawn) [Compound 15, Cinnamic Acid (−)-Bornyl Ester]
4.96

Requested read-out pIC50, target or system L. major amastigotes, entry Cc1ccc(C(C)C)c(OC(=O)/C=C/c2ccc(O)c(O)c2)c1
4.27

Requested read-out pIC50, target or system L. major amastigotes, entry CC1(C)C2CCC1(C)C(OC(=O)C=Cc1ccc(O)c(O)c1)C2 (centres unmarked)
4.33

Requested read-out pIC50, target or system L. major amastigotes, entry COc1ccc(/C=C/C(=O)OC2CC3CCC2(C)C3(C)C)cc1O (stereo not drawn) [Compound 2, Isoferulic Acid (−)-bornyl Ester]
4.41

Requested read-out pIC50, target or system L. major amastigotes, entry CC1CCC(C(C)C)C(OC(=O)/C=C/c2ccccc2)C1 (centres unmarked)
4.71

Requested read-out pIC50, target or system L. major amastigotes, entry CCCCCCCCCCCCCCCCOP(=O)([O-])OCC[N+](C)(C)C [miltefosine, reference compound]
4.48

Requested read-out pIC50, target or system L. major amastigotes, entry CC1(C)C2CCC1(C)[C@H](OC(=O)/C=C/c1ccc(O)c(O)c1)C2 (stereo partly drawn) [Compound 1, Caffeic Acid (−)-bornyl Ester]
4.32
